Experiment: Activation of the compound assessed as half life at 20 Equiv of Et3P by HPLC and TLC method
Format: physicochemical
Kindly state half-life for each of the entries shown.
Answers are plain numbers, in h.

Consider the worked cases shown below.
| compound | result |
| --- | --- |
| CO[C@@]12[C@H](COC(N)=O)C3=C(C(=O)C(C)=C(NC[C@H]4CC[C@@H](CNC5=C(C)C(=O)C6=C(C5=O)[C@@H](COC(N)=O)[C@@]5(OC)[C@H]7N[C@H]7CN65)SS4)C3=O)N1C[C@@H]1N[C@@H]12 | 3.12 |
| CO[C@@]12[C@H](OC(N)=O)C3=C(C(=O)C(C)=C(NCC4CCCCC(CNC5=C(C)C(=O)C6=C(C5=O)[C@@H](OC(N)=O)[C@@]5(OC)[C@H]7N[C@H]7CN65)SSC(CNC5=C(C)C(=O)C6=C(C5=O)[C@@H](OC(N)=O)[C@@]5(OC)[C@H]7N[C@H]7CN65)CCCCC(CNC5=C(C)C(=O)C6=C(C5=O)[C@@H](OC(N)=O)[C@@]5(OC)[C@H]7N[C@H]7CN65)SS4)C3=O)N1C[C@@H]1N[C@@H]12 (stereo partly drawn) | 1.99 |

Kindly consider the entry below.
Exercise: Recorded half-life for CO[C@@]12[C@H](COC(N)=O)C3=C(C(=O)C(C)=C(NCC4CCCCC(CNC5=C(C)C(=O)C6=C(C5=O)[C@@H](COC(N)=O)[C@@]5(OC)[C@H]7N[C@H]7CN65)SS4)C3=O)N1C[C@@H]1N[C@@H]12 (mixture of isomers) , please?
Solution: 1.2

----------
Assay: Activation of the compound assessed as half life at 40 Equiv of Et3P by HPLC and TLC method
Type: physicochemical
value kind: half-life (h)
One number for each entry, in h.

Exercise: Recorded half-life for CO[C@@]12[C@H](OC(N)=O)C3=C(C(=O)C(C)=C(NCC4CCCCC(CNC5=C(C)C(=O)C6=C(C5=O)[C@@H](OC(N)=O)[C@@]5(OC)[C@H]7N[C@H]7CN65)SSC(CNC5=C(C)C(=O)C6=C(C5=O)[C@@H](OC(N)=O)[C@@]5(OC)[C@H]7N[C@H]7CN65)CCCCC(CNC5=C(C)C(=O)C6=C(C5=O)[C@@H](OC(N)=O)[C@@]5(OC)[C@H]7N[C@H]7CN65)SS4)C3=O)N1C[C@@H]1N[C@@H]12 (stereo partly specified) , please?
Solution: 1.01

----------
Test: Stability of the compound at 20 Equiv of L-ditiothreitol after 5 days by HPLC and TLC method
Format: physicochemical
Details: read-out: Stability
value kind: remaining at 120 h

Exercise: Recorded remaining at 120 h for CO[C@@]12[C@H](COC(N)=O)C3=C(C(=O)C(C)=C(NCC(O)CCCCC(O)CNC4=C(C)C(=O)C5=C(C4=O)[C@@H](COC(N)=O)[C@@]4(OC)[C@H]6N[C@H]6CN54)C3=O)N1C[C@@H]1N[C@@H]12 (mixture of isomers) , please?
Solution: < 10%

----------
Experiment: Stability of the compound at 20 Equiv L-ditiothreitol measured after 3 days by HPLC and TLC method
Assay type: physicochemical
Settings: read-out: Stability
value kind: remaining at 72 h

Exercise: Recorded remaining at 72 h for CO[C@@]12[C@H](COC(N)=O)C3=C(C(=O)C(C)=C(NCC4CCCCC(CNC5=C(C)C(=O)C6=C(C5=O)[C@@H](COC(N)=O)[C@@]5(OC)[C@H]7N[C@H]7CN65)SS4)C3=O)N1C[C@@H]1N[C@@H]12 (mixture of isomers) , please?
Solution: < 10%

----------
Experiment: Activation of the compound assessed as half life at 5 Equiv of Et3P by HPLC and TLC method
Assay type: physicochemical
value kind: half-life
A bare number is not enough; add the unit after it.

Exercise: Recorded half-life for CO[C@@]12[C@H](COC(N)=O)C3=C(C(=O)C(C)=C(NCC4CCCCC(CNC5=C(C)C(=O)C6=C(C5=O)[C@@H](COC(N)=O)[C@@]5(OC)[C@H]7N[C@H]7CN65)SS4)C3=O)N1C[C@@H]1N[C@@H]12 (mixture of isomers) , please?
Solution: 331 min

----------
Assay: Stability of the compound at 10 Equiv of L-ditiothreitol after 3 days by HPLC and TLC method
Format: physicochemical
Conditions: read-out: Stability
value kind: remaining at 72 h

Exercise: Recorded remaining at 72 h for CO[C@@]12[C@H](COC(N)=O)C3=C(C(=O)C(C)=C(NCC4CCCCC(CNC5=C(C)C(=O)C6=C(C5=O)[C@@H](COC(N)=O)[C@@]5(OC)[C@H]7N[C@H]7CN65)SS4)C3=O)N1C[C@@H]1N[C@@H]12 (mixture of isomers) , please?
Solution: < 10%

----------
Assay: Stability of the compound measured after 5 days by HPLC and TLC method
Format: physicochemical
Settings: read-out: Stability
value kind: remaining at 120 h

| molecule | remaining at 120 h |
| --- | --- |
| CO[C@@]12[C@H](COC(N)=O)C3=C(C(=O)C(C)=C(NCC(O)CCCCC(O)CNC4=C(C)C(=O)C5=C(C4=O)[C@@H](COC(N)=O)[C@@]4(OC)[C@H]6N[C@H]6CN54)C3=O)N1C[C@@H]1N[C@@H]12 (mixture of isomers) | < 10% |

Kindly consider the entry below.
Exercise: Recorded remaining at 120 h for CO[C@@]12[C@H](COC(N)=O)C3=C(C(=O)C(C)=C(NCC4CCCCC(CNC5=C(C)C(=O)C6=C(C5=O)[C@@H](COC(N)=O)[C@@]5(OC)[C@H]7N[C@H]7CN65)SS4)C3=O)N1C[C@@H]1N[C@@H]12 (mixture of isomers) , please?
Solution: < 10%

----------
Test: Stability of the compound at 20 Equiv of Et3P after 3 days by HPLC and TLC method
Assay type: physicochemical
Conditions: read-out: Stability
value kind: remaining at 72 h

Exercise: Recorded remaining at 72 h for CO[C@@]12[C@H](COC(N)=O)C3=C(C(=O)C(C)=C(NCC(O)CCCCC(O)CNC4=C(C)C(=O)C5=C(C4=O)[C@@H](COC(N)=O)[C@@]4(OC)[C@H]6N[C@H]6CN54)C3=O)N1C[C@@H]1N[C@@H]12 (mixture of isomers) , please?
Solution: < 10%
